Entry source: ChEMBL document CHEMBL4725295

Parameter Ki, tested on Cathepsin B (Homo sapiens, UniProt P07858), listed per item.

Study these solved cases before continuing.
N#CC1(NC(=O)[C@H](Cc2ccccc2)N[C@@H](c2ccccc2)C(F)(F)F)CC1 = > 10 µM
N#CC1(NC(=O)[C@H](Cc2ccccc2)N[C@@H](c2ccc(Br)cc2)C(F)(F)F)CC1 = > 10 µM

Turning now to a further compound:
Entry N#CC1(NC(=O)[C@@H](Cc2ccccc2)N[C@H](c2ccc(Br)cc2)C(F)(F)F)CC1 ; assay system Cathepsin B (Homo sapiens, UniProt P07858); Ki recorded at > 10 µM

====

Biological target: Cathepsin B (Homo sapiens, UniProt P07858)
Assay: Inhibition of human cathepsin B relative to control
metric: inhibition (INH) (%)

Cc1ccc([C@@H](N[C@@H](Cc2ccccc2)C(=O)NC2(C#N)CC2)C(F)(F)F)cc1 = 92
N#CC1(NC(=O)[C@H](Cc2ccccc2)N[C@@H](c2ccccc2)C(F)(F)F)CC1 = 74.5
